Molecular target: GPR119 (Homo sapiens, UniProt Q8TDV5)
Sequence (Q8TDV5 1-335): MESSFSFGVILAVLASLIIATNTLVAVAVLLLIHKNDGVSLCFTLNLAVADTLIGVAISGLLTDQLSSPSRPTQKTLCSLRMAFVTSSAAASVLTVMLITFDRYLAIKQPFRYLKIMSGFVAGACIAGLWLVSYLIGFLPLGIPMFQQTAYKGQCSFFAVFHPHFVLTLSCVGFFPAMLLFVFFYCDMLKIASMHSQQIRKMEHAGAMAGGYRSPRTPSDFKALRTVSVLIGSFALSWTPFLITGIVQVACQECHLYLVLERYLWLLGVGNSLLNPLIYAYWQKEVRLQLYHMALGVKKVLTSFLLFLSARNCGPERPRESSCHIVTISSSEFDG
Test: Controlling Effect of GPR119 in CRE-bla CHO-K1 Cells (EC50)
Settings: GPR119 CRE-bla CHO-K1 cell line, 5 hr incubation with compound, β-lactamase LiveBLAzer-FRET B/G readout; read-out: controlling effect against GPR119 in CRE-bla CHO-K1 cell line (EC50)
EC50 values, listed per item

Sample records with EC50:
| compound | reported.endpoint | endpoint.value |
| --- | --- | --- |
| CC(C)(C)c1noc(N2CCC(Oc3ncnc4c(-c5ccc(S(C)(=O)=O)cc5)csc34)CC2)n1 | EC50 | < 100 nM |
| CS(=O)(=O)c1ccc(-c2csc3c(OC4CCN(C#N)CC4)ncnc23)c(F)c1 | EC50 | 100 to 1000 nM |
| CN(c1ncnc2c(-c3ccc(S(C)(=O)=O)cc3)csc12)C1CCN(C(=O)OC(C)(C)C)CC1 | EC50 | < 100 nM |

Return EC50 (reported value) for this compound: "CC(C)c1noc(N2CCC(Oc3ncnc4c(-c5ccc(S(=O)(=O)C6CCCC6)cc5)csc34)CC2)n1"
< 100 nM

Return EC50 (reported value) for this compound: CS(=O)(=O)c1ccc(-c2csc3c(OC4CCN(c5nc(C6CC7CCC6C7)no5)CC4)ncnc23)c(F)c1 (stereo not shown)
< 100 nM

----------
Biological target: UniProtKB Q8TDV5
Assay: Controlling Effect of GPR119 in CRE-bla CHO-K1 Cells (EC50)
Conditions: GPR119 CRE-bla CHO-K1 cell line, 5 hr incubation with compound, β-lactamase LiveBLAzer-FRET B/G readout; read-out: controlling effect against GPR119 in CRE-bla CHO-K1 cell line (EC50)
Method: Controlling Effect of GPR119 in CRE-bla CHO-K1 Cells (EC50) The day before the experiment, GPR119 CRE-bla CHO-K1 cell line purchased from Invitrogen was seeded in a 96 black well plate in an amount of 80 μl at a density of 5×10^4 cells. After the seeding, 10 μl of doxycycline in a concentration of 1 μg/ml was added to each well and incubated in an incubator at 37° C. under 5% CO2 for about 16 to 20 hr. […]
EC50 values, listed per item

| molecule | measured.on | EC50 |
| --- | --- | --- |
| CS(=O)(=O)c1ccc(-c2csc3c(OC4CCN(c5ncc(C6CC6)cn5)CC4)ncnc23)c(F)c1 [Example 84] | UniProtKB Q8TDV5 | < 0.1 µM |
| CC(=O)N1CCC(Oc2ncnc3c(-c4ccc(S(C)(=O)=O)cc4F)csc23)CC1 [Example 87] | UniProtKB Q8TDV5 | > 1 µM |

Return EC50 (reported value) for this molecule: Cn1cc(-c2ccc(-n3cnnn3)cc2)c2ncnc(O[C@H]3CCN(C(=O)OC(C)(C)C)C3)c21 [Example 125]
> 1 µM

Return EC50 (reported value) for this molecule: CS(=O)(=O)c1ccc(-c2csc3c(OC4CCN(Cc5ccccc5)CC4)ncnc23)c(F)c1 [Example 91]
< 0.1 µM

Return EC50 (reported value) for this molecule: CS(=O)(=O)c1ccc(-c2csc3c(N4CCC(c5nc(C6CCCCC6)no5)CC4)ncnc23)cc1 [Example 7]
< 0.1 µM

Return EC50 (reported value) for this molecule: CS(=O)(=O)c1ccc(-c2csc3c(OC4CCN(c5nc(CC6CC6)no5)CC4)ncnc23)c(F)c1 [Example 69]
< 0.1 µM

Return EC50 (reported value) for this molecule: CC(C)c1noc(N2CCC(Oc3ncnc4c(-c5ccc(S(C)(=O)=O)cc5)csc34)C2)n1 (stereo not shown) [Example 58]
0.1 to 1 µM

Return EC50 (reported value) for this molecule: CCc1cnc(N2CCC(Oc3ncnc4c(-c5ccc(F)nc5)cn(C)c34)CC2)nc1 [Example 48]
> 1 µM

Return EC50 (reported value) for this molecule: CC(C)(C)OC(=O)N1CCC(Oc2ncnc3c(-c4ccc(S(C)(=O)=O)cc4)csc23)CC1 [Example 50]
< 0.1 µM

Return EC50 (reported value) for this molecule: CC(C)c1noc(C2CCN(c3ncnc4c(-c5ccc(S(=O)(=O)C6CCCC6)cc5)csc34)CC2)n1 [Example 23]
< 0.1 µM
